# Procedure summary: calcium response in parental HEK293 cells, primary screen, counter-screen for MrgX1 allosteric activator project, cell-based, Fluo-4 calcium flux, duplicate (AID 624114);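 also: untransfected parental HEK293 lacking MrgX1 used as counterscreen for MrgX1 allosteric activators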
# Condition details: Fluo-4 fluorescence ratio, at 10 µM
Hit rate of the full screen: of about 4,000 compounds, about 15 (0.4%) were called active. A selection follows.
Experimental readout: outcome

>>> obs_value("C=CCNC(=O)c1csc(-c2ccccc2)n1")
"inactive"
>>> obs_value("O=C(Nc1ccc(Br)cc1F)C1CC(=O)N(C2CCCCC2)C1 (configuration not stated)")
"inactive"
>>> obs_value("O=C1Cc2ccccc2Sc2ccc(Cl)cc21")
"inactive"
>>> obs_value("COc1ccc(OC)c(Nc2nc3ccccc3n3cnnc23)c1")
"inactive"
>>> obs_value("O=C(c1ccc(OC2CCN(C(=O)c3cccnc3)CC2)cc1)N1CCCCCC1")
"inactive"
>>> obs_value("Cc1occc1C(=O)Nc1nnc(-c2ccncc2)s1")
"inactive"
>>> obs_value("COc1ccc(NC(=O)c2cc(-c3ccc(C)o3)nc3ccccc23)cc1")
"inactive"
>>> obs_value("COCc1nnc(NC(=O)c2ccc3c(c2)OCO3)s1")
"inactive"
>>> obs_value("OCc1ccc(OCCCOc2cccc3cccnc23)cc1")
"inactive"
>>> obs_value("O=C(Cc1nc2ccccc2[nH]c1=O)c1ccc(Cl)cc1")
"inactive"
>>> obs_value("O=C(Nc1ccccc1N1CCCCC1)c1ccc2nccnc2c1")
"inactive"
>>> obs_value("CN1/C(=C\\C=C2\\N=C(c3ccc(F)cc3)OC2=O)C(C)(C)c2ccccc21")
"inactive"
